These entries and their values trace back to patent US20250296960A1.

Each entry below carries its reported Relative % to native ligand.
Molecular target: human glucagon receptor (GCGR), expressed on CHO-K1 cells (human, UniProt P47871 26-477)
Sequence (P47871 26-477): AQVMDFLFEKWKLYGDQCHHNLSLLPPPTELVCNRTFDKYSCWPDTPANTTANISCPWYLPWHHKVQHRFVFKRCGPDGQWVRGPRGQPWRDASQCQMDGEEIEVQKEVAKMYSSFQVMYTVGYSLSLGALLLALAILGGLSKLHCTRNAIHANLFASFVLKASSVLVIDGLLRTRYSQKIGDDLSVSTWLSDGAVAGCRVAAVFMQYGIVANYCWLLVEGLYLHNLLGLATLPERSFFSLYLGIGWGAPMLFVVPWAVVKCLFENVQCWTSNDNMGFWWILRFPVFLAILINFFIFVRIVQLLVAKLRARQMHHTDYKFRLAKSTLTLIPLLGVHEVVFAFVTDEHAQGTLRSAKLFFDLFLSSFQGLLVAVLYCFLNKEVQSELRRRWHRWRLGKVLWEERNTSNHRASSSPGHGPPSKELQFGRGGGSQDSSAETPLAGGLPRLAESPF
Test: cell-based or functional assay
Numbered stars: 1 amine (or outer) side, 2 acyl side, 3 side chain; on linkers, the order of the positions; unused ones are H or OH. Square brackets hold non-standard residues; d marks the D form. Primed or numbered codes have the meaning given here. Side chains are listed from the residue outwards. Ends that are not written are not given here. * marks the point of attachment. C18″ = C18 fatty acid moiety (of 2OEG-γGlu-C18, K*); γGlu = O=C(O)[C@H](CCC(=O)[*:2])N[*:1]; AEEA = NCCOCCOCC(=O)O; Aib = CC(C)(N)C(=O)O
Outcome measure: Relative % to native ligand

>>> print(df.to_string())
                                     binder  result
0  Y[Aib]QGTFTSDYSK([AEEA-AEEA-γGlu-C18″])YLDYMMARDFVQWLIEGGPSSGAPPPS-NH2 [Peptide No. 5-1D]     55%
1  Y[Aib]QGTFTSDYSKYLDYMMQRDFVQWLIEGGPSSGAPPPSC-NH2 (not fully specified (residue 40)) [Peptide No. 5-2A]      1%
2  Y[Aib]QGTFTSDYSK([AEEA-AEEA-γGlu-C18″])YLDYMMQRDFVQWLIEGGPSSGAPPPS-NH2 [Peptide No. 5-2D]      3%
3  Y[Aib]QGTFTSDYSKYLDYK([AEEA-AEEA-γGlu-C18″])MARDFVQWLIEGGPSSGAPPPS-NH2 [Peptide No. 5-1F]   5030%
4  H[Aib]QGTFTSDYSKLLDYMMQRDFVQWLLEGGPSSGAPPPSC-NH2 [Peptide No. 5-5]    260%
5  Y[Aib]QGTFTSDK([AEEA-AEEA-γGlu-C18″])SKYLDYMMARDFVQWLIEGGPSSGAPPPS-NH2 [Peptide No. 5-1E]     74%
